Hello, the source for this data is ChEMBL document CHEMBL1130186, in case you need it.

Task for the reader: assign each of the following compounds its reported log10 IC50.
# experimentalSystem: Integrin alpha-4/beta-1 (Homo sapiens, UniProt P05556+P13612)
# Sequence (P05556 whole entry): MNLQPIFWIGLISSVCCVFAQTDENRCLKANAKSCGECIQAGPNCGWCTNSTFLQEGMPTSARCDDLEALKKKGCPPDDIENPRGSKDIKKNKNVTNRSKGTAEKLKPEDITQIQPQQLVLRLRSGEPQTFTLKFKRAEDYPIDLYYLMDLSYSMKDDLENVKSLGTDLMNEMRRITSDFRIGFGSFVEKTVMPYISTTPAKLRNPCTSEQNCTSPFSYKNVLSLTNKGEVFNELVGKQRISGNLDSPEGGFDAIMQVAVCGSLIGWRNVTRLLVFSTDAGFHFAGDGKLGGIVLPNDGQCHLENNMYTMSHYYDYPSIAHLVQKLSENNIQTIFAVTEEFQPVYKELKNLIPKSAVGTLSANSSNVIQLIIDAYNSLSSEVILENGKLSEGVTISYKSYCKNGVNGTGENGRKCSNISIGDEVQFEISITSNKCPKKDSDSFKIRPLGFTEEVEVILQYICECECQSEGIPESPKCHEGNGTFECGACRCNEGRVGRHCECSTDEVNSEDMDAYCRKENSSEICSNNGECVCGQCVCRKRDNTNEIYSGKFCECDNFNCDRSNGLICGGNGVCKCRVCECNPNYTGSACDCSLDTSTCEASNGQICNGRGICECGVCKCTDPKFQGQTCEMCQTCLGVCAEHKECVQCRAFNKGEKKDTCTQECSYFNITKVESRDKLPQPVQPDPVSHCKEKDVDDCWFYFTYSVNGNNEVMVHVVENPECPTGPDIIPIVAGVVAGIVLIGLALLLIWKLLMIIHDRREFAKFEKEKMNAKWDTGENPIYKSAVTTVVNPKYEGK
# Sequence (P13612 whole entry): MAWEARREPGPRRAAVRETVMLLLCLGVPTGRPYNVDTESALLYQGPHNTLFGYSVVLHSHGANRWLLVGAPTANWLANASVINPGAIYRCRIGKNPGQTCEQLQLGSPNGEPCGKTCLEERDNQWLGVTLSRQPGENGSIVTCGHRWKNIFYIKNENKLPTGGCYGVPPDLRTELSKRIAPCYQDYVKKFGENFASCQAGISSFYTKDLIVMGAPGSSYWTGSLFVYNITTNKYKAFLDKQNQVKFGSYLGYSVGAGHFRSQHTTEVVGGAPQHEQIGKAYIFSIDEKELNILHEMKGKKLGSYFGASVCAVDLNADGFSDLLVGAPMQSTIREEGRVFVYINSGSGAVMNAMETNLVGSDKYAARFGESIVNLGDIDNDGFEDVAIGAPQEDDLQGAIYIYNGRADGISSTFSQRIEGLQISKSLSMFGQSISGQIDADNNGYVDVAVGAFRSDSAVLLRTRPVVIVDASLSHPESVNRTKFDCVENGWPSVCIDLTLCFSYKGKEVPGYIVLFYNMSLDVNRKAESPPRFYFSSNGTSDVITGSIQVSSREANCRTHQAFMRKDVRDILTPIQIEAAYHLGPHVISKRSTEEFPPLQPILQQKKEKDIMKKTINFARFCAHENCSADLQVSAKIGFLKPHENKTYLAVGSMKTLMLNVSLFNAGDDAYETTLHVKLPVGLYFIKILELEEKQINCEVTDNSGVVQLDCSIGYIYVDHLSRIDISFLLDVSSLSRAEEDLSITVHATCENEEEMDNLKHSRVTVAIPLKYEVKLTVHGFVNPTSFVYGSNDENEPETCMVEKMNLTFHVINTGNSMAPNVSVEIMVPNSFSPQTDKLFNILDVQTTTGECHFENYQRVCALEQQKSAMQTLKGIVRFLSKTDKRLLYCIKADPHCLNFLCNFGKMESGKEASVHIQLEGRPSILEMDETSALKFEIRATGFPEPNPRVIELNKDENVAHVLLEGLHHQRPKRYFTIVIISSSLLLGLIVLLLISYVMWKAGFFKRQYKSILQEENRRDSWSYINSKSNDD
# experimentalDetails: Inhibition of purified alpha-4 beta-1 binding to VCAM-1 was determined in an ELISA assay.
# Type: protein-complex assay
Where a SMILES comes first, the peptide text is derived from it. Bridges are numbered along the chain shown (N, C = ends). [ ]: non-standard residue; d: D form. The star is where a group is joined. Fluorene(1-CO) = O=C(c1cccc2c1Cc1ccccc1-2)*; Tyr(3-F) = N[C@@H](Cc1ccc(O)c(F)c1)C(=O)O; X4 = O=C(c1ccc(-c2ccc(O)cc2)cc1)*; Cha = N[C@@H](CC1CCCCC1)C(=O)O; X2 = O=C(c1cccc2cc(O)ccc12)*
Heads up, the numbers here are log10 of IC50 in nM units.

QUERY: Can you look up the measured log10 IC50 of O=C(N[C@H]1CSSC[C@@H](C(=O)O)NC(=O)[C@@H]2CCCN2C(=O)[C@H](CO)NC1=O)c1ccc(-c2ccc(O)cc2)cc1 (X4-CSPC-OH; disulfide 1-4) for me?
RESULT: 3.22

Please go through the list and note log10 IC50 for each compound.
1. N[C@@H](Cc1ccc(O)c(F)c1)C(=O)N[C@H]1CSSC[C@@H](C(=O)O)NC(=O)[C@@H]2CCCN2C(=O)[C@H](CO)NC1=O (H-[Tyr(3-F)]CSPC-OH; disulfide 2-5)
2. N=C(N)NCCC[C@H](NC(=O)[C@@H](N)Cc1ccc(O)cc1)C(=O)N[C@H]1CSSC[C@@H](C(=O)O)NC(=O)[C@@H]2CCCN2C(=O)[C@H](CC(N)=O)NC1=O (H-YRCNPC-OH; disulfide 3-6)
3. N[C@@H](Cc1ccccc1)C(=O)N[C@H]1CSSC[C@@H](C(=O)O)NC(=O)[C@@H]2CCCN2C(=O)[C@H](CO)NC1=O (H-FCSPC-OH; disulfide 2-5)
4. CC(=O)N[C@@H](Cc1ccc(O)cc1)C(=O)N[C@H]1CSSC[C@@H](C(=O)O)NC(=O)CNC(=O)[C@H](C)NC1=O (Ac-YCAGC-OH; disulfide 2-5)
5. CC(C)C[C@@H]1NC(=O)[C@H](C)NC(=O)[C@@H](NC(=O)[C@@H](N)Cc2ccc(O)cc2)CSSC[C@@H](C(=O)O)NC1=O (H-YCALC-OH; disulfide 2-5)
6. O=C(N[C@H]1CSSC[C@@H](C(=O)O)NC(=O)[C@@H]2CCCN2C(=O)[C@H](CO)NC1=O)c1cccc2cc(O)ccc12 (X2-CSPC-OH; disulfide 1-4)
7. NC(N)=NCCC[C@H](NC(=O)[C@@H](N)Cc1ccccc1)C(=O)N[C@H]1CSSC[C@@H](C(=O)O)NC(=O)[C@@H]2CCCN2C(=O)[C@H](CC(=O)O)NC1=O (H-FRCDPC-OH; disulfide 3-6)

RESULT:
[0.90, 1.60, 3.18, 4.34, 1.53, 3.04, 3.32]

Quick batch: log10 IC50 for everything below.
1. CC[C@H](C)[C@@H]1NC(=O)[C@H](C)NC(=O)[C@@H](NC(=O)[C@@H](N)Cc2ccc(O)cc2)CSSC[C@@H](C(=O)O)NC1=O (H-YCAIC-OH; disulfide 2-5)
2. CC(=O)N[C@@H](Cc1ccc(O)cc1)C(=O)N[C@H]1CSSC[C@@H](C(=O)O)NC(=O)[C@@H]2CCCN2C(=O)[C@H](Cc2ccc(O)cc2)NC1=O (Ac-YCYPC-OH; disulfide 2-5)
3. NC(N)=NCCC[C@H](NC(=O)[C@@H](N)Cc1ccc(O)cc1)C(=O)N[C@H]1CSSC[C@@H](C(=O)O)NC(=O)[C@@H]2CCCN2C(=O)[C@H](CC(=O)O)NC1=O (H-YRCDPC-OH; disulfide 3-6)
4. O=C(N[C@H]1CSSC[C@@H](C(=O)O)NC(=O)[C@@H]2CCCN2C(=O)[C@H](CO)NC1=O)c1cccc2c1Cc1ccccc1-2 ({Fluorene(1-CO)}-CSPC-OH; disulfide 1-4)
5. N[C@@H](Cc1ccc(O)cc1)C(=O)N[C@H]1CSSC[C@@H](C(=O)O)NC(=O)[C@H](CC2CCCCC2)NC1=O (H-YC[Cha]C-OH; disulfide 2-4)
6. NCCCC[C@H](N)C(=O)N[C@H]1CSSC[C@@H](C(=O)O)NC(=O)[C@@H]2CCCN2C(=O)[C@H](CC(=O)O)NC1=O (H-KCDPC-OH; disulfide 2-5)

RESULT:
1: 1.36; 2: 0.48; 3: 2.04; 4: 2.15; 5: 4.26; 6: 5.40

###

# experimentalSystem: Integrin alpha-4/beta-1 (Homo sapiens, UniProt P05556+P13612)
# experimentalDetails: Inhibition of fluorescently labeled alpha4-beta1 positive Ramos cells binding to immobilized VCAM-1.
# Type: cell-based
Where a SMILES comes first, the peptide text is derived from it. Bridges are numbered along the chain shown (N, C = ends). [ ]: non-standard residue; d: D form. 3Amb = NCc1cccc(C(=O)O)c1; Pip = O=C(O)[C@@H]1CCCCN1; 2Abz = Nc1ccccc1C(=O)O; Ava = NCCCCC(=O)O
What IC50 was measured for each of the following?
Numbers only, in µM.

The following compounds have reported results that may help.
QUERY: Entry under review: N[C@@H](Cc1ccc(O)cc1)C(=O)N[C@H]1CSSC[C@@H](C(=O)O)NC(=O)c2ccccc2NC1=O (H-YC[2Abz]C-OH; disulfide 2-4) . Reported IC50?
RESULT: 80

QUERY: N[C@@H](Cc1ccc(O)cc1)C(=O)N[C@H]1CSSC[C@@H](C(=O)O)NC(=O)CCCCNC1=O (H-YC[Ava]C-OH; disulfide 2-4) ?
RESULT: 17

QUERY: Now consider CC(=O)N[C@@H](Cc1ccc(O)cc1)C(=O)N[C@H]1CSSC[C@@H](C(=O)O)NC(=O)[C@@H]2CCCN2C(=O)[C@H]([C@@H](C)O)NC1=O (Ac-YCTPC-OH; disulfide 2-5) and answer again.
RESULT: 0.32

QUERY: Next compound: CC(=O)N[C@@H](Cc1ccc(O)cc1)C(=O)N[C@H]1CSSC[C@@H](C(=O)O)NC(=O)[C@@H]2CCCCN2C(=O)[C@H](C)NC1=O (Ac-YCA[Pip]C-OH; disulfide 2-5)
RESULT: 0.02

QUERY: Entry to check: N[C@@H](Cc1ccc(O)cc1)C(=O)N[C@H]1CSSC[C@@H](C(=O)O)NC(=O)c2cccc(c2)CNC1=O (H-YC[3Amb]C-OH; disulfide 2-4)
RESULT: 210

Next up:
QUERY: Param item = CC[C@H](C)[C@@H]1NC(=O)[C@H](C)NC(=O)[C@@H](NC(=O)[C@@H](N)Cc2ccc(O)cc2)CSSC[C@@H](C(=O)O)NC1=O (H-YCAIC-OH; disulfide 2-5) ; retrieve measured IC50.
RESULT: 0.94

###

# experimentalSystem: Integrin alpha-4/beta-1 (Homo sapiens, UniProt P05556+P13612)
# experimentalDetails: Inhibition of purified alpha-4 beta-1 binding to VCAM-1 was determined in an ELISA assay.
# Format: protein-complex assay
Where a SMILES comes first, the peptide text is derived from it. Bridges are numbered along the chain shown (N, C = ends). [ ]: non-standard residue; d: D form. The star is where a group is joined. Tyr(3-I) = N[C@@H](Cc1ccc(O)c(I)c1)C(=O)O; 2Naphthoyl = O=C(c1ccc2ccccc2c1)*; 4Abz = Nc1ccc(C(=O)O)cc1; βAla = NCCC(=O)O
Answer each item with its documented pIC50.
Give bare numbers, as −log10 of the molar value.

Required: pIC50, one value per compound below.
1. O=C(N[C@H]1CSSC[C@@H](C(=O)O)NC(=O)[C@@H]2CCCN2C(=O)[C@H](CO)NC1=O)c1ccc2ccccc2c1 (2Naphthoyl-CSPC-OH; disulfide 1-4)
2. N[C@@H](Cc1ccc(O)cc1)C(=O)N[C@H]1CSSC[C@@H](C(=O)O)NC(=O)CCNC1=O (H-YC[βAla]C-OH; disulfide 2-4)
3. NC(=O)[C@@H]1CSSC[C@H](NC(=O)[C@@H](N)CCCN=C(N)N)C(=O)N[C@@H](CC(=O)O)C(=O)N2CCC[C@H]2C(=O)N1 (H-RCDPC-NH2; disulfide 2-5)
4. N[C@@H](Cc1ccc(O)cc1)C(=O)N[C@H]1CSSC[C@@H](C(=O)O)NC(=O)c2ccc(cc2)NC1=O (H-YC[4Abz]C-OH; disulfide 2-4)
5. N[C@@H](Cc1ccc(O)c(I)c1)C(=O)N[C@H]1CSSC[C@@H](C(=O)O)NC(=O)[C@@H]2CCCN2C(=O)[C@H](CO)NC1=O (H-[Tyr(3-I)]CSPC-OH; disulfide 2-5)
6. N=C(N)NCCC[C@H](NC(=O)[C@@H](N)Cc1ccc(O)cc1)C(=O)N[C@H]1CSSC[C@@H](C(=O)O)NC(=O)[C@@H]2CCCN2C(=O)[C@H](CCC(=O)O)NC1=O (H-YRCEPC-OH; disulfide 3-6)

RESULT:
1. 7.27
2. 5.38
3. 4.30
4. 6.80
5. 8.40
6. 7.05
